Study Target: Voltage-dependent T-type calcium channel subunit alpha-1H (Homo sapiens, UniProt O95180)
Sequence (O95180 whole entry): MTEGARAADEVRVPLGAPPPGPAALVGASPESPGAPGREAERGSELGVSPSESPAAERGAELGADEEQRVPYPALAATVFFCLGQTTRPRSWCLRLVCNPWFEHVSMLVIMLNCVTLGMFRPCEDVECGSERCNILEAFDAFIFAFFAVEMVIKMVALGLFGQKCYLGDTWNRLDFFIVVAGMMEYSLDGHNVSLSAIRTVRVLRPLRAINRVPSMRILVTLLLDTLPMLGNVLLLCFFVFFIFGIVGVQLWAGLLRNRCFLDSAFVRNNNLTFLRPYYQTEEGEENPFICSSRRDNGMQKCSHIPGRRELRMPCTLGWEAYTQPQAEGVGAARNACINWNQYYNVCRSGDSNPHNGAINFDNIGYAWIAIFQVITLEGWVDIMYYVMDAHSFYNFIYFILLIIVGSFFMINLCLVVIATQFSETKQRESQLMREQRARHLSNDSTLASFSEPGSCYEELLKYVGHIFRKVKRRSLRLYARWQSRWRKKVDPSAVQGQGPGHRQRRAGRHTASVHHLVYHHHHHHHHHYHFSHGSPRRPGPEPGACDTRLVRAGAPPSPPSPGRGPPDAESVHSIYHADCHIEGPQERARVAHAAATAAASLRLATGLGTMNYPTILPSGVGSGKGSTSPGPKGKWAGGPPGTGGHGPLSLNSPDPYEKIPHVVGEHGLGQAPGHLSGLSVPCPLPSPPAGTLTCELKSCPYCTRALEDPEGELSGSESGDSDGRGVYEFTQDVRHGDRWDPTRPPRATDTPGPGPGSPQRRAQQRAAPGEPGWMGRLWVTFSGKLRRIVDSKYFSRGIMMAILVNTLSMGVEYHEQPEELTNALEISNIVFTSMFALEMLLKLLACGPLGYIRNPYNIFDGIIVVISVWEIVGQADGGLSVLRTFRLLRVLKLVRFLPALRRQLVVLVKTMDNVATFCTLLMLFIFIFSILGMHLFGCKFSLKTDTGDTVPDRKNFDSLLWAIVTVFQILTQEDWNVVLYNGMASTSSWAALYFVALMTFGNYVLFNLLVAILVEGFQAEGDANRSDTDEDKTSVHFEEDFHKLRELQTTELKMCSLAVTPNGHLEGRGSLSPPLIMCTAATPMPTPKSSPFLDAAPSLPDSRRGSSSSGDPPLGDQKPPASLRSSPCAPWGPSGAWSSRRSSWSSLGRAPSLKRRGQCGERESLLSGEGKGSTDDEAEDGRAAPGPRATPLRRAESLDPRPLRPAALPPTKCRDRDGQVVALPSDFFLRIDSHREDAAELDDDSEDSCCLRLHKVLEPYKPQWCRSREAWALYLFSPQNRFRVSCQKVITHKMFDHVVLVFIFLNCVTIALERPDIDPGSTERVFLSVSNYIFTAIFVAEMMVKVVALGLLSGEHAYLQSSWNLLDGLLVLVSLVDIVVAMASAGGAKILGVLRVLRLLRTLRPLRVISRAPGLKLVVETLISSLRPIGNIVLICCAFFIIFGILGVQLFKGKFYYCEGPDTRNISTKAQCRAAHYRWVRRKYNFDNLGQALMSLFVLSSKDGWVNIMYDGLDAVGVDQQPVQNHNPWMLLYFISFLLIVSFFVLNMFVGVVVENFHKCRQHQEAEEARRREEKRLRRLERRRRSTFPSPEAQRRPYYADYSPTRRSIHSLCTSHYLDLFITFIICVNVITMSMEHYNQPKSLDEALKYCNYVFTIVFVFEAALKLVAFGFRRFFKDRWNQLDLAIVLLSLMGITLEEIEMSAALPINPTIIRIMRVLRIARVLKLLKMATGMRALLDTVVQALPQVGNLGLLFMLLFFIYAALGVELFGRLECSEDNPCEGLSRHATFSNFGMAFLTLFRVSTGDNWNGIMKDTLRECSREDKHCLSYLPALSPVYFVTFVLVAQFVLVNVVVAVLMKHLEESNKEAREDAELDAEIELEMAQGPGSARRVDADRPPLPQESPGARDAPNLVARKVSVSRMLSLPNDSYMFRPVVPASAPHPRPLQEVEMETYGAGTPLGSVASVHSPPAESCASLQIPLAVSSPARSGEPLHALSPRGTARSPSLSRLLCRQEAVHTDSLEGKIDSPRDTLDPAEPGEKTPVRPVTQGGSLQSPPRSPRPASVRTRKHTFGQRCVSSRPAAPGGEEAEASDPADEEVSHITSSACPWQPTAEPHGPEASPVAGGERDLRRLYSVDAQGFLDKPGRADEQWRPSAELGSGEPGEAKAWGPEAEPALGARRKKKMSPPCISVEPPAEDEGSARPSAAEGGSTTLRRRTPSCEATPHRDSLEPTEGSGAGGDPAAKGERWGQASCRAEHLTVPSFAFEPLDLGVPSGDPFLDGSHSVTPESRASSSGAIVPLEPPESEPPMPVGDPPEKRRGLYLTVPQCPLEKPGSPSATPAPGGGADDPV
Measurement Protocol: Inhibition of […] channel Cav3.2 (unknown origin)
Measurement Type: IC50

Consider the molecule COc1ccc2ncc(=O)n(CCN3CCC(NCc4ccc5c(n4)NC(=O)CO5)CC3)c2c1 and give its measured IC50.
> 100 µM

Suppose we examine the molecule N[C@@H](Cn1c(=O)cnc2ccc(F)cc21)[C@H]1CC[C@H](NCc2ncc3c(n2)NC(=O)CO3)CC1 ; what IC50 value has been reported?
> 100 µM

What value of measured IC50 is listed for COc1cnc2ccc(=O)n(C[C@H](N)[C@H]3CC[C@H](NCc4ccc5c(n4)NC(=O)CO5)CC3)c2c1 ?
> 333 µM
